For each of the compounds below, state its GI50.
# System: NCI-H226
# assay.summary: NCI tumour cell line growth inhibition, 48 h
Activity calls are given as the source filed them. No stated cut-off is given here; in the data, active = GI50 up to about 1.1 µM and inactive = higher.

compound	system.under.test	GI50
O=C(Nc1ccn(C2CCC(COC(c3ccccc3)(c3ccccc3)c3ccccc3)O2)c(=O)n1)c1ccccc1 (stereo not given)	NCI-H226	6.9 µM (inactive)
CC(=O)/C(=N\O)C(=O)NCc1ccccc1	NCI-H226	> 100 µM (inactive)
NCCOc1cccc(C2(N3CCCCC3)CCCCC2)c1	NCI-H226	> 100 µM (inactive)
CCN(/N=C1\CC2C=CCN(C2)C(=O)Cc2c1[nH]c1ccccc21)S(=O)(=O)c1ccc(C)cc1 (stereo not given)	NCI-H226	14.6 µM (inactive)

**Q:** GI50 for "Nc1ccccc1N/C(=C\C(=O)C(Cl)(Cl)Cl)c1ccccc1" ?
**A:** 24.2 µM (inactive)
